What viability, T/C was measured for each of the following?
System: NCI-H841 complex tumor spheroid viability
ASSAY PROCEDURE: Anticancer human tumor NCI-H841 cell line growth inhibition;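 further: spheroids exposed to compounds for 7 days before readout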;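 on viability, T/C: 100% = DMSO vehicle control wells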
REPORTED CONDITIONS: second compound 0.3 µM; first compound 10 µM; stronger effect = lower value
One number for each entry, in %.

Answered cases to consult:
| MOLECULE | viability, T/C (%) |
| --- | --- |
| COc1cc(C)[nH]c(=O)c1CN1CCc2c(Cl)cc(C(OC)C3COC3)c(Cl)c2C1=O (stereo unspecified) + CC[C@@]1(O)C(=O)OCc2c1cc1n(c2=O)Cc2cc3c(CN(C)C)c(O)ccc3nc2-1 | 0.98 |
| COc1ccc([C@@H](O)c2cc(-c3ncnc4cc(N5CCOCC5)ccc34)c(F)cc2Cl)nn1 + CC[C@@]1(O)C(=O)OCc2c1cc1n(c2=O)Cc2cc3c(CN(C)C)c(O)ccc3nc2-1 | 0.42 |
| [2H]c1nc(C)nc([2H])c1-c1cc(NC[C@@H](C)c2cccc3c(C(=O)NC)ccnc23)ncn1 + CC[C@@]1(O)C(=O)OCc2c1cc1n(c2=O)Cc2cc3c(CN(C)C)c(O)ccc3nc2-1 | 1.17 |
| CC1COCCN1c1cc(-c2ccnn2C)c2ccnc(-c3ccn[nH]3)c2n1 (stereo unspecified) + CC[C@@]1(O)C(=O)OCc2c1cc1n(c2=O)Cc2cc3c(CN(C)C)c(O)ccc3nc2-1 | 0.72 |
| CC(C)n1c(=O)n(C)c2cnc3cc(F)c(-c4ccc(OCCCN5CCCCC5)nc4)cc3c21 + CC[C@@]1(O)C(=O)OCc2c1cc1n(c2=O)Cc2cc3c(CN(C)C)c(O)ccc3nc2-1 | 0.78 |

// moving on: another record for viability, T/C
[in] What measured viability, T/C is associated with Cc1cc(C)c(CNC(=O)c2cc(-c3ccc(CN4CCOCC4)cc3)cc3c2cnn3C2CCCC2)c(=O)[nH]1 + CC[C@@]1(O)C(=O)OCc2c1cc1n(c2=O)Cc2cc3c(CN(C)C)c(O)ccc3nc2-1 on NCI-H841 complex tumor spheroid viability?
[out] 4.17

----------
Tested on: NCI-H841 complex tumor spheroid viability
ASSAY PROCEDURE: Anticancer human tumor NCI-H841 cell line growth inhibition;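 further: spheroids exposed to compounds for 7 days before readout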;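 on viability, T/C: 100% = DMSO vehicle control wells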
REPORTED CONDITIONS: second compound 0.3 µM; first compound 0.1 µM; stronger effect = lower value
QUANTITY KIND: viability, T/C

Illustrative cases are given below, each with its answer.
| COMPOUND | SYSTEM | QUANTITY KIND | RECORDED RESULT |
| --- | --- | --- | --- |
| COc1ccc([C@@H](O)c2cc(-c3ncnc4cc(N5CCOCC5)ccc34)c(F)cc2Cl)nn1 + CC[C@@]1(O)C(=O)OCc2c1cc1n(c2=O)Cc2cc3c(CN(C)C)c(O)ccc3nc2-1 | NCI-H841 complex tumor spheroid viability | viability, T/C | 1.64% |
| CC(C)n1c(=O)n(C)c2cnc3cc(F)c(-c4ccc(OCCCN5CCCCC5)nc4)cc3c21 + CC[C@@]1(O)C(=O)OCc2c1cc1n(c2=O)Cc2cc3c(CN(C)C)c(O)ccc3nc2-1 | NCI-H841 complex tumor spheroid viability | viability, T/C | 2.08% |

Could you report viability, T/C for every entry in the following list?
1. [2H]c1nc(C)nc([2H])c1-c1cc(NC[C@@H](C)c2cccc3c(C(=O)NC)ccnc23)ncn1 + CC[C@@]1(O)C(=O)OCc2c1cc1n(c2=O)Cc2cc3c(CN(C)C)c(O)ccc3nc2-1
2. COc1cc(C)[nH]c(=O)c1CN1CCc2c(Cl)cc(C(OC)C3COC3)c(Cl)c2C1=O (stereo unspecified) + CC[C@@]1(O)C(=O)OCc2c1cc1n(c2=O)Cc2cc3c(CN(C)C)c(O)ccc3nc2-1
3. Cc1cc(C)c(CNC(=O)c2cc(-c3ccc(CN4CCOCC4)cc3)cc3c2cnn3C2CCCC2)c(=O)[nH]1 + CC[C@@]1(O)C(=O)OCc2c1cc1n(c2=O)Cc2cc3c(CN(C)C)c(O)ccc3nc2-1
4. CC1COCCN1c1cc(-c2ccnn2C)c2ccnc(-c3ccn[nH]3)c2n1 (stereo unspecified) + CC[C@@]1(O)C(=O)OCc2c1cc1n(c2=O)Cc2cc3c(CN(C)C)c(O)ccc3nc2-1

[out]
1: 1.94%; 2: 1.53%; 3: 1.62%; 4: 0.41%

----------
Test system: NCI-H841 complex tumor spheroid viability
ASSAY PROCEDURE: Anticancer human tumor NCI-H841 cell line growth inhibition;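 further: spheroids exposed to compounds for 7 days before readout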;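 on viability, T/C: 100% = DMSO vehicle control wells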
REPORTED CONDITIONS: second compound 31.6 µM; first compound 0.3 µM; stronger effect = lower value
Consider the following molecules; for each one, report its viability, T/C.
One number for each entry, in %.

Example entries and their recorded answers appear below.
| MOLECULE | SYSTEM | UNIT | viability, T/C |
| --- | --- | --- | --- |
| Cc1sc2c(c1C)C(c1ccc(Cl)cc1)=NC(CC(=O)Nc1ccc(O)cc1)c1nnc(C)n1-2 (centres undefined) + Cn1nnc2c(C(N)=O)ncn2c1=O | NCI-H841 complex tumor spheroid viability | % | 57.3 |
| O=C(c1cc(Cc2n[nH]c(=O)c3ccccc23)ccc1F)N1CCN(C(=O)C2CC2)CC1 + Cn1nnc2c(C(N)=O)ncn2c1=O | NCI-H841 complex tumor spheroid viability | % | 83.1 |
| CNCc1ccc(-c2cc(-c3nc(-c4ccc(S(=O)(=O)C(C)C)cc4)cnc3N)on2)cc1 + Cn1nnc2c(C(N)=O)ncn2c1=O | NCI-H841 complex tumor spheroid viability | % | 17.2 |

Continue with the molecule presented below.
[in] Returns the measured viability, T/C for the input molecule. Input: Cn1ncnc1[C@H]1c2n[nH]c(=O)c3cc(F)cc(c23)N[C@@H]1c1ccc(F)cc1 + Cn1nnc2c(C(N)=O)ncn2c1=O
[out] 2.41

----------
What pIC50 was measured for each of the following?
Test system: NCI-H841 complex tumor spheroid viability
ASSAY PROCEDURE: Anticancer human tumor NCI-H841 cell line growth inhibition;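 further: spheroids exposed to compounds for 7 days before readout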
REPORTED CONDITIONS: curve of first compound; second compound 0.0949 µM
pIC50: −log10 of the molar value.

| MOLECULE | RECORDED RESULT |
| --- | --- |
| COc1cc(C)[nH]c(=O)c1CN1CCc2c(Cl)cc(C(OC)C3COC3)c(Cl)c2C1=O (stereo not given) + CC[C@@]1(O)C(=O)OCc2c1cc1n(c2=O)Cc2cc3c(CN(C)C)c(O)ccc3nc2-1 | > 7.50 |

Fill in pIC50 for each of the 3 molecules listed.
1. CNCc1ccc(-c2cc(-c3nc(-c4ccc(S(=O)(=O)C(C)C)cc4)cnc3N)on2)cc1 + CC[C@@]1(O)C(=O)OCc2c1cc1n(c2=O)Cc2cc3c(CN(C)C)c(O)ccc3nc2-1
2. CC1COCCN1c1cc(-c2ccnn2C)c2ccnc(-c3ccn[nH]3)c2n1 (stereo not given) + CC[C@@]1(O)C(=O)OCc2c1cc1n(c2=O)Cc2cc3c(CN(C)C)c(O)ccc3nc2-1
3. COc1ccc([C@@H](O)c2cc(-c3ncnc4cc(N5CCOCC5)ccc34)c(F)cc2Cl)nn1 + CC[C@@]1(O)C(=O)OCc2c1cc1n(c2=O)Cc2cc3c(CN(C)C)c(O)ccc3nc2-1

[out]
1. > 8.02
2. > 7.50
3. > 7.50

[in] Field request: pIC50 | item: [2H]c1nc(C)nc([2H])c1-c1cc(NC[C@@H](C)c2cccc3c(C(=O)NC)ccnc23)ncn1 + CC[C@@]1(O)C(=O)OCc2c1cc1n(c2=O)Cc2cc3c(CN(C)C)c(O)ccc3nc2-1
[out] > 7.50

----------
Please respond with reported viability, T/C for every item in the list.
Test system: NCI-H841 complex tumor spheroid viability
ASSAY PROCEDURE: Anticancer human tumor NCI-H841 cell line growth inhibition;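 further: spheroids exposed to compounds for 7 days before readout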;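 on viability, T/C: 100% = DMSO vehicle control wells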
REPORTED CONDITIONS: second compound 0.03 µM; first compound 0.3 µM; stronger effect = lower value

Example cases with answers are listed next.
| MOLECULE | viability, T/C |
| --- | --- |
| CNCc1ccc(-c2cc(-c3nc(-c4ccc(S(=O)(=O)C(C)C)cc4)cnc3N)on2)cc1 + CC[C@@]1(O)C(=O)OCc2c1cc1n(c2=O)Cc2cc3c(CN(C)C)c(O)ccc3nc2-1 | 1.64% |
| Cc1sc2c(c1C)C(c1ccc(Cl)cc1)=NC(CC(=O)Nc1ccc(O)cc1)c1nnc(C)n1-2 (centres undefined) + CC[C@@]1(O)C(=O)OCc2c1cc1n(c2=O)Cc2cc3c(CN(C)C)c(O)ccc3nc2-1 | 0.58% |
| Cn1ncnc1[C@H]1c2n[nH]c(=O)c3cc(F)cc(c23)N[C@@H]1c1ccc(F)cc1 + CC[C@@]1(O)C(=O)OCc2c1cc1n(c2=O)Cc2cc3c(CN(C)C)c(O)ccc3nc2-1 | 1.4% |

Continue with the next molecule.
[in] Entry O=C(c1cc(Cc2n[nH]c(=O)c3ccccc23)ccc1F)N1CCN(C(=O)C2CC2)CC1 + CC[C@@]1(O)C(=O)OCc2c1cc1n(c2=O)Cc2cc3c(CN(C)C)c(O)ccc3nc2-1 : reported viability, T/C = ?
[out] 1.56%
